Where these numbers come from: paper PMC9482650

# ASSAYED SYSTEM: NHERF4_1, Q86UT5-2
# Sequence (Q86UT5 other isoform, or with tags, fused parts or gaps): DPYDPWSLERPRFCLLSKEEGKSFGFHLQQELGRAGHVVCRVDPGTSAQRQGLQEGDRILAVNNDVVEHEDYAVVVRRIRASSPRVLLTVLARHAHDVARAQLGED
# METHOD DESCRIPTION: holdup assay
# Parameters: key: below the threshold = too weak to quantify, mostly under pKd 3.1 to 4
# CONDITIONS USED: plain residues with an end cap or a label only (N-terminal biotin on a linker: ado-ado)
MEASUREMENT LABEL: pKd

{"columns": ["BINDER", "MEASUREMENT LABEL", "ASSAY VALUE"],
 "data": [
  ["DYSNLRETDI [ADRA1D, P25100]", "pKd", "below the threshold"],
  ["TFSRRPKTRV [CD226, Q15762]", "pKd", "below the threshold"],
  ["GDSSRKEYFI [GYPC, P04921]", "pKd", "below the threshold"],
  ["WAKEKQHTRL [SLC17A1, Q14916]", "pKd", 4.07]
]}
